MLM Cli for assorted compounds
assay: Metabolic stability in mouse liver microsomes (MLM); assay type: in vitro ADME; settings: mouse liver microsomes
Please give a number only; it is taken to be in µL/min/mg.

Some entries whose results are on file:
                                   compound  measurementtype  unitsofmeasure  experimentalvalue
0  Cc1sc2ncnc(SCC(=O)N3CCn4nc(C(F)(F)F)nc4C3)c2c1Cl [Compound 5v]          MLM Cli       µL/min/mg                140
1  Cc1sc2ncnc(SCC(=O)N(C)C)c2c1Cl [Compound 5a]          MLM Cli       µL/min/mg                360
2  Cc1sc2ncnc(SCC(=O)N3CC(=O)N4CCCC4C3)c2c1Cl (centres unmarked) [Compound 5k]          MLM Cli       µL/min/mg                 63
3  Cc1c(C(F)(F)F)oc2ncnc(SCC(=O)N3CC(=O)N(C)C3)c12 [Compound 24]          MLM Cli       µL/min/mg                6.9
4  Cc1sc2ncnc(SCC(=O)N3CNC(=O)C3)c2c1Cl [Compound 5e]          MLM Cli       µL/min/mg                 65
5  Cc1sc2ncnc(SCC(=O)N3CC(=O)N(C)C3)c2c1C [Compound 21]          MLM Cli       µL/min/mg                 31
6  Cc1sc2ncnc(SCC(=O)N3CCNC(=O)C3)c2c1Cl [Compound 5d]          MLM Cli       µL/min/mg                 19

# ---- query compound ----
(Q) Tell me the measured MLM Cli of Cc1sc2ncnc(SCC(=O)N3CC(=O)N(CC(F)(F)F)C3)c2c1Cl [Compound 5o] , please.
(A) 140

Data origin: paper PMC6961116
